# Test system: CRABP-2 expression of fibroblasts
# Protocol Notes: CRABP-2 protein expression in fibroblasts (Western blot, densitometric scanning)
# Format: cell-based, Human
# Applied Conditions: Example 4: 500 nM retinoids and 1.0 μl of a 10% anise seed extract; control as 100%
Attribute Measured: As % of control

// solved cases for As % of control follow
CC(=O)OC/C=C(C)/C=C/C=C(C)/C=C/C1=C(C)CCCC1(C)C [Retinyl acetate] ... 237 % of control
CCCCC/C=C\C/C=C\CCCCCCCC(=O)OC/C=C(C)/C=C/C=C(C)/C=C/C1=C(C)CCCC1(C)C [Retinyl linoleate] ... 231 +/− 30 % of control
CCCCCCCCCCCCCCCC(=O)OC/C=C(C)/C=C/C=C(C)/C=C/C1=C(C)CCCC1(C)C [Retinyl Palmitate] ... 193 % of control

QUERY: Recall the reported As % of control of CC1=C(/C=C/C(C)=C/C=C/C(C)=C/CO)C(C)(C)CCC1 on CRABP-2 expression of fibroblasts and write it down.
RESULT: 154 +/− 44 % of control
